assayed_system: cellular kallikrein activity (Homo sapiens (Human), UniProt P03952)
Sequence (P03952 391-638): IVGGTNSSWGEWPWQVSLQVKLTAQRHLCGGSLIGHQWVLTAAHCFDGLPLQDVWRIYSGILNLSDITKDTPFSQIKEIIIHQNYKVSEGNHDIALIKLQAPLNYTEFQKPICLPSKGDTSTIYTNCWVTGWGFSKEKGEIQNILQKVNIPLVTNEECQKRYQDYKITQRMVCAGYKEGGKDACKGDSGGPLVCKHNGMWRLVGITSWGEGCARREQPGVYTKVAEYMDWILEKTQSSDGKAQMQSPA
Sequence (P03952 20-390 partner): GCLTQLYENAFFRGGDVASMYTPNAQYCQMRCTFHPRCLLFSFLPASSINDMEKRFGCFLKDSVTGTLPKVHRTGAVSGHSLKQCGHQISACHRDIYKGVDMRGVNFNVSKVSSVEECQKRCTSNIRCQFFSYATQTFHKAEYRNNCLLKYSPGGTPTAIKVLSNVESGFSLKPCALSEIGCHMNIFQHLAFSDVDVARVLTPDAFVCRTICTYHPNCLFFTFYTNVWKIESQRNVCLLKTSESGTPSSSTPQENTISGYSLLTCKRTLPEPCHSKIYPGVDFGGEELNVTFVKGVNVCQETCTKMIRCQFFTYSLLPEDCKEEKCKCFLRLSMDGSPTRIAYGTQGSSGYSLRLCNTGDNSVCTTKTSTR
assay_remarks: In vitro cellular assay (contact assay): kallikrein activity in ellagic acid-activated human plasma, Z-FR-2-AMC substrate
Format: biochemical
test_parameters: human plasma activated with ellagic acid, 37° C.
pEC50: −log10 of the molar value.
Catalogue of pEC50 readings, one per entry.

Here is how some molecules turned out for pEC50.
[
  {
    "molecule": "Cc1cc(N)nc(C)c1CNC(=O)c1ccnc(Cc2cc(C(C)(C)O)c3ncc(Cl)cc3c2)c1 [Example 219]",
    "readout": "pEC50",
    "recorded_measurement": "> 7.00"
  },
  {
    "molecule": "Cc1nc(N)ccc1CNC(=O)c1ccnc(Cc2cc(CN)c3ncc(Cl)cc3c2)c1 [Example 253]",
    "readout": "pEC50",
    "recorded_measurement": "> 7.00"
  },
  {
    "molecule": "Cc1cc(C(=O)NCc2c(C)cc(N)nc2C)cc(Cc2ccc3ncc(Cl)cc3c2)n1 [Example 104]",
    "readout": "pEC50",
    "recorded_measurement": "> 7.00"
  },
  {
    "molecule": "Cc1nc(N)ccc1CNC(=O)c1ccnc(Cc2cc(C(C)(C)O)c3ncc(Cl)cc3c2)c1 [Example 220]",
    "readout": "pEC50",
    "recorded_measurement": "> 7.00"
  }
]

Next, consider the following molecule.
Item Cc1nc(N)ccc1CNC(=O)c1ccnc(Cc2ccc3ncc(CC(F)F)cc3c2)c1 [Example 279] with cellular kallikrein activity (Homo sapiens (Human), UniProt P03952) - pEC50? 6.00 to 7.00
